# target-system: hM4 (Homo sapiens, UniProt P08173)
# Construct: HA (hemagglutinin)
# Sequence (P08173 whole entry): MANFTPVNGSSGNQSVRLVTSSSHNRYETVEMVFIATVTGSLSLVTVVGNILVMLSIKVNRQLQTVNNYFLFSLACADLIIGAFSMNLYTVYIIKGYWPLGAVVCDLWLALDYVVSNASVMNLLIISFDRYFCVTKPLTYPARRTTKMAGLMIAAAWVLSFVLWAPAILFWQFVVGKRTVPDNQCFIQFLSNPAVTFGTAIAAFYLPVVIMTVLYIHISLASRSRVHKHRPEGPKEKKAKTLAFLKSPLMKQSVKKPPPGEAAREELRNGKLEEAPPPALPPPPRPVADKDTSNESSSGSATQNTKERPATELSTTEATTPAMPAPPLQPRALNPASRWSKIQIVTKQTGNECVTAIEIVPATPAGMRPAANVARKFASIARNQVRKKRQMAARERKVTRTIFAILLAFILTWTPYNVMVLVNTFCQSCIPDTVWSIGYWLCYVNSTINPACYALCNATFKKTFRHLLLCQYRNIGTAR
# method-summary: whole-cell [3H]NMS competition binding
# condition-label: hM4, FlpIn CHO cells, mean (±SEM)
# Lookup of reported Ki keyed by entry
# output: bare number, implied unit nM

[[record]]
structure_as_smiles = "CN1CCN(C2=Nc3ccccc3Cc3ccccc32)CC1"
target_system = "hM4 (Homo sapiens, UniProt P08173)"
measurement_type = "Ki"
measured_number = 263


Attention now turns to another entry.
// returns Ki for c1ccc2c(c1)N=C(N1CCNCC1)c1ccccc1N2 with hM4 (Homo sapiens, UniProt P08173); value = 3630

----------
# target-system: Beta3 (Homo sapiens, UniProt P13945)
# Construct: NIMH PDSP
# Sequence (P13945 whole entry): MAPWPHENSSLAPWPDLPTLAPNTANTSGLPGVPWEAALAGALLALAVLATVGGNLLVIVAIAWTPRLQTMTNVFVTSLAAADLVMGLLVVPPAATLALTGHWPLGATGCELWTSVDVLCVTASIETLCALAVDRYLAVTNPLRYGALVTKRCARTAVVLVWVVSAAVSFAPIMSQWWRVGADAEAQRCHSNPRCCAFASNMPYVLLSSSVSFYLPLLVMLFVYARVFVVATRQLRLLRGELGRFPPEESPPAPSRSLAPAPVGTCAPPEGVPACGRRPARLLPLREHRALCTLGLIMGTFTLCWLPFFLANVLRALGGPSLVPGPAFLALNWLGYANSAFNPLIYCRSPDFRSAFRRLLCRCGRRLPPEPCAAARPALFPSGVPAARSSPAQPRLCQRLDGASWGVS
# method-summary: NIMH PDSP radioligand binding, membranes
# condition-label: read-out: Ki
pKi: −log10 of the molar value.
measurement-type: pKi

Documented pKi of c1ccc2c(c1)N=C(N1CCNCC1)c1ccccc1N2 [C21] : < 5.00

----------
# target-system: hM4 (Homo sapiens, UniProt P08173)
# Construct: HA (hemagglutinin)
# method-summary: inhibition of isoproterenol-stimulated cAMP production
# condition-label: hM4, inhibition of isoproterenol elevated cAMP, mean (±SEM)
measurement-type: EC50 (nM)
The reply should be a number in nM, with the unit left off.

[[record]]
compound = "c1ccc2c(c1)N=C(N1CCNCC1)c1ccccc1N2 [C21]"
measured_number = 1860


# EC50 of CN1CCN(C2=Nc3ccccc3Cc3ccccc32)CC1 [perlapine] = 56.2

----------
# target-system: H1 (Homo sapiens, UniProt P35367)
# Sequence (P35367 whole entry): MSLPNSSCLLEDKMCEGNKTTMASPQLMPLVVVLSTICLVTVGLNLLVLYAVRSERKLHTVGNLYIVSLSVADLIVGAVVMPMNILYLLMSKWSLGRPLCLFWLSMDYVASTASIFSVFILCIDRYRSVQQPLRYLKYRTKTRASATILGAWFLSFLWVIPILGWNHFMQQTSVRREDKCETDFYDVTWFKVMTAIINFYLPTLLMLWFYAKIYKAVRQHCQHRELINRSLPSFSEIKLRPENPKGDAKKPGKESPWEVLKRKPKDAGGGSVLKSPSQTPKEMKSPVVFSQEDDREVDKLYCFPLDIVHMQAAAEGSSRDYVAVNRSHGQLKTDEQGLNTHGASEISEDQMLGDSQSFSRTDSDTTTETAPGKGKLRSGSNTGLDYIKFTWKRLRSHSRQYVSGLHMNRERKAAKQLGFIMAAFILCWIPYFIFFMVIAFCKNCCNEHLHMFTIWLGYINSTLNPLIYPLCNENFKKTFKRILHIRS
# method-summary: NIMH PDSP radioligand binding, membranes
# condition-label: read-out: Ki #1-#5 (individual assays)
measurement-type: Ki (nM)
Reply with just the number (in nM).

The compound c1ccc2c(c1)N=C(N1CCNCC1)c1ccccc1N2 [C21] showed Ki equal to 4.5
